# Assay name: Tolerability in Sprague-Dawley rats: liver function (Example 44)
# Type: in vivo
# Condition info: 50 mg/kg s.c. twice per week for 6 weeks, plasma
Strand notation (5' to 3'): a small letter for the sugar, then the base; units joined by * are phosphorothioate-linked, units joined directly phosphodiester-linked; [ ] holds rarer units or linkages, { } end groups; capitals alone tell only the bases. e = 2'-O-(2-methoxyethyl) (MOE); [5mC] = 5-methylcytosine; d = 2'-deoxy (DNA)
Measured metric: Bilirubin (mg/dL)

Substance	Measured metric	Value units	Recorded result
ISIS 449709: 3-8-3, 4-8-4, 2-10-2, 3-10-3 or 4-10-4 MOE microwalk gapmer (Table 46) (antisense eG*e[5mC]*eA*e[5mC]*dA*dG*dT*dT*dT*d[5mC]*dT*dG*dG*d[5mC]*eA*eG*eG*e[5mC])	Bilirubin	mg/dL	0.2
ISIS 449708: 3-8-3, 4-8-4, 2-10-2, 3-10-3 or 4-10-4 MOE microwalk gapmer (Table 46) (antisense eA*e[5mC]*eA*dG*dT*dT*dT*d[5mC]*dT*dG*dG*e[5mC]*eA*eG)	Bilirubin	mg/dL	0.1
ISIS 449710: 3-8-3, 4-8-4, 2-10-2, 3-10-3 or 4-10-4 MOE microwalk gapmer (Table 46) (antisense e[5mC]*eA*e[5mC]*dA*dG*dT*dT*dT*d[5mC]*dT*dG*dG*d[5mC]*eA*eG*eG)	Bilirubin	mg/dL	0.1
ISIS 449707: 3-8-3, 4-8-4, 2-10-2, 3-10-3 or 4-10-4 MOE microwalk gapmer (Table 46) (antisense e[5mC]*eA*e[5mC]*eA*dG*dT*dT*dT*d[5mC]*dT*dG*dG*e[5mC]*eA*eG*eG)	Bilirubin	mg/dL	0.2
ISIS 449711: 3-8-3, 4-8-4, 2-10-2, 3-10-3 or 4-10-4 MOE microwalk gapmer (Table 46) (antisense eA*e[5mC]*dA*dG*dT*dT*dT*d[5mC]*dT*dG*dG*d[5mC]*eA*eG)	Bilirubin	mg/dL	0.1

---

# Assay name: Tolerability in CD1 mice: organ weight (Example 33)
# Format: in vivo
# Condition info: 50 mg/kg s.c. twice a week, 2 weeks, vs PBS control, normalized to body weight
Measured metric: Percent change in liver weight

> print(dat)
                                  substance  recorded.result
1  416825 (antisense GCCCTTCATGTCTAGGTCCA; 5-10-5 gapmer, further chemistry not given here) [compound 416825]              +5%
2  416850 (antisense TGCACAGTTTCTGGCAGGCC; 5-10-5 gapmer, further chemistry not given here) [compound 416850]              +5%
3  417003 (antisense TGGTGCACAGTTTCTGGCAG; 2-13-5 gapmer chemistry, further chemistry not given here) [compound 417003]              +8%
4  416925 (antisense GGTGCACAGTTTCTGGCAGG; 3-14-3 gapmer chemistry, further chemistry not given here) [compound 416925]             +14%
5  416826 (antisense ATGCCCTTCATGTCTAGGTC; 5-10-5 gapmer, further chemistry not given here) [compound 416826]             +10%
6  416838 (antisense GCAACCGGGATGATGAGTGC; 5-10-5 gapmer, further chemistry not given here) [compound 416838]              +8%

---

# Assay name: Tolerability in CD1 mice: liver function, ALT, AST, bilirubin, albumin (Example 33)
# Condition info: plasma, 50 mg/kg s.c. twice a week, 2 weeks
Below: a set of entries, each annotated with reported Bilirubin.

Substance	Bilirubin / mg/dL
ISIS 417002: MOE gapmer, nucleobases 1275 to 1318 of SEQ ID NO: 1 (Table 8) (antisense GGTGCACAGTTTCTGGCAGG; MOE gapmer, wing and gap sizes not given here)	0.50
ISIS 416858: MOE gapmer, nucleobases 1275 to 1318 of SEQ ID NO: 1 (Table 8) (antisense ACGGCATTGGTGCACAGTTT; MOE gapmer, wing and gap sizes not given here)	0.57
ISIS 416838: MOE gapmer, nucleobases 1018 to 1042 of SEQ ID NO: 1 (Table 6) (antisense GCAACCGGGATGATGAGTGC; MOE gapmer, wing and gap sizes not given here)	0.57

---

# Condition info: mouse, in vivo, sc, 50 mg/kg
e = 2'-O-(2-methoxyethyl) (MOE); d = 2'-deoxy (DNA)
Measured metric: hemoglobin (g/dL)

Substance	Measured metric	Recorded result
ISIS 445504: 5-8-5 or 6-8-6 MOE microwalk gapmer (Table 44) (antisense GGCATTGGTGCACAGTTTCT; sugars from the 5' end e6 d8 e6, backbone and methylation of C not given here)	hemoglobin	14.7
ISIS 445509: 5-8-5 or 6-8-6 MOE microwalk gapmer (Table 44) (antisense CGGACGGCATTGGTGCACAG; sugars from the 5' end e6 d8 e6, backbone and methylation of C not given here)	hemoglobin	15.3
ISIS 445532: 5-8-5 or 6-8-6 MOE microwalk gapmer (Table 44) (antisense CGGCATTGGTGCACAGTT; sugars from the 5' end e5 d8 e5, backbone and methylation of C not given here)	hemoglobin	14.8
ISIS 445513, (antisense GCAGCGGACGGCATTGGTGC; 6-8-6 MOE gapmer, further chemistry not given here)	hemoglobin	15.0

---

Below: a set of entries, each annotated with reported Lymphocyte.
# Condition info: mouse, in vivo, sc, 50 mg/kg
e = 2'-O-(2-methoxyethyl) (MOE); d = 2'-deoxy (DNA)

Substance	Lymphocyte
ISIS 445513: 5-8-5 or 6-8-6 MOE microwalk gapmer (Table 44) (antisense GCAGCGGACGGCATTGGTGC; sugars from the 5' end e6 d8 e6, backbone and methylation of C not given here)	5523
ISIS 445509: 5-8-5 or 6-8-6 MOE microwalk gapmer (Table 44) (antisense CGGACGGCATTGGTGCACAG; sugars from the 5' end e6 d8 e6, backbone and methylation of C not given here)	3758
ISIS 445505: 5-8-5 or 6-8-6 MOE microwalk gapmer (Table 44) (antisense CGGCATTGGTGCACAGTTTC; sugars from the 5' end e6 d8 e6, backbone and methylation of C not given here)	3447
ISIS 445504: 5-8-5 or 6-8-6 MOE microwalk gapmer (Table 44) (antisense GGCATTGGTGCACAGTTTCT; sugars from the 5' end e6 d8 e6, backbone and methylation of C not given here)	3578
ISIS 445532: 5-8-5 or 6-8-6 MOE microwalk gapmer (Table 44) (antisense CGGCATTGGTGCACAGTT; sugars from the 5' end e5 d8 e5, backbone and methylation of C not given here)	5490
ISIS 445530: 5-8-5 or 6-8-6 MOE microwalk gapmer (Table 44) (antisense GCATTGGTGCACAGTTTC; sugars from the 5' end e5 d8 e5, backbone and methylation of C not given here)	5488

---

# Assay name: Hematology assays in cynomolgus monkeys (Example 45)
# Type: in vivo
# Condition info: day 43
# Procedure: Groups, each consisting of two male and three female monkeys, were injected subcutaneously with ISIS 416838, ISIS 416850, ISIS 416858, ISIS 416864, or ISIS 417002 in escalating doses. […] Body weights were measured weekly. […]
Measured metric: lymphocytes (%)

Substance	Measured metric	Recorded result
ISIS 416838: MOE gapmer, nucleobases 1018 to 1042 of SEQ ID NO: 1 (Table 6) (antisense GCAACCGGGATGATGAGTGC; MOE gapmer, wing and gap sizes not given here)	lymphocytes	65
ISIS 416858: MOE gapmer, nucleobases 1275 to 1318 of SEQ ID NO: 1 (Table 8) (antisense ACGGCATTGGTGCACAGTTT; MOE gapmer, wing and gap sizes not given here)	lymphocytes	51
ISIS 416864: MOE gapmer, nucleobases 1275 to 1318 of SEQ ID NO: 1 (Table 8) (antisense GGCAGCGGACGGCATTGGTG; MOE gapmer, wing and gap sizes not given here)	lymphocytes	39
ISIS 416850: MOE gapmer, nucleobases 1275 to 1318 of SEQ ID NO: 1 (Table 8) (antisense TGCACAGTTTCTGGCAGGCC; MOE gapmer, wing and gap sizes not given here)	lymphocytes	45
ISIS 417002: MOE gapmer, nucleobases 1275 to 1318 of SEQ ID NO: 1 (Table 8) (antisense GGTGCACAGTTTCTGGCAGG; MOE gapmer, wing and gap sizes not given here)	lymphocytes	39

---

# Assay name: Tolerability in Sprague-Dawley rats: kidney function (Example 44)
# Type: in vivo
# Condition info: 50 mg/kg s.c. twice per week for 6 weeks, plasma
Strand notation (5' to 3'): a small letter for the sugar, then the base; units joined by * are phosphorothioate-linked, units joined directly phosphodiester-linked; [ ] holds rarer units or linkages, { } end groups; capitals alone tell only the bases. e = 2'-O-(2-methoxyethyl) (MOE); [5mC] = 5-methylcytosine; d = 2'-deoxy (DNA)
Measured metric: Creatinine (mg/dL)

Substance	Measured metric	Recorded result
ISIS 449711: 3-8-3, 4-8-4, 2-10-2, 3-10-3 or 4-10-4 MOE microwalk gapmer (Table 46) (antisense eA*e[5mC]*dA*dG*dT*dT*dT*d[5mC]*dT*dG*dG*d[5mC]*eA*eG)	Creatinine	0.4
ISIS 449708: 3-8-3, 4-8-4, 2-10-2, 3-10-3 or 4-10-4 MOE microwalk gapmer (Table 46) (antisense eA*e[5mC]*eA*dG*dT*dT*dT*d[5mC]*dT*dG*dG*e[5mC]*eA*eG)	Creatinine	0.4
ISIS 449707: 3-8-3, 4-8-4, 2-10-2, 3-10-3 or 4-10-4 MOE microwalk gapmer (Table 46) (antisense e[5mC]*eA*e[5mC]*eA*dG*dT*dT*dT*d[5mC]*dT*dG*dG*e[5mC]*eA*eG*eG)	Creatinine	0.4
